B1: Twister Ribozyme (parent)
chain: AACACUGCCAAUGCCGGUCCCAAGCCCGGAUAAAAGUGGAGGGGGCGG

Variants of: B1
Experiment: self-cleavage, relative activity (ratio to wild type); higher = more cleavage; co-transcriptional
For each record, write down the corresponding self-cleavage.
Respond with the number and no other words.

Reported self-cleavage of A23G C26U : 0.101

So, G7A C27A ? Its self-cleavage was 0.112

# self-cleavage of U12G G36U = 0.397

Summary for this variant, A22U U37A : self-cleavage is 0.256

The value of self-cleavage measured for the variant U18A C26U turned out to be 0.158

response.value for C20A C26G (field: self-cleavage) = 0.105

Reported self-cleavage ( A34C A35G ) = 0.212

get_value(item= A40G G43U , readout=self-cleavage) returns 0.136

What the record says about G24A G47C : self-cleavage is 0.11

// sample A11C C20G , its self-cleavage was 0.131

The variant listed as A4C U6C shows self-cleavage equal to 0.0627
